B1: IKZF1 (parent)
chain: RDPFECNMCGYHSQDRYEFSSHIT

Variants of: B1
protocol.description: protein stability index of a GFP-peptide fusion (GPS, HEK-293T) (PSI 1-6); higher = more stable;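 further: lentivirally expressed fusions sorted by FACS into six bins by GFP to DsRed ratio, PSI derived from sequencing read proportions per bin multiplied by bin number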
test.parameters: c terminus: a fixed tail appended
endpoint.name: protein stability index
// print number alone

- variant.identifier: "H22E"
  protein stability index: 2.55
- variant.identifier: "Y17V"
  protein stability index: 1.76
- variant.identifier: "C9A"
  protein stability index: 2.98
- variant.identifier: "Q14F"
  protein stability index: 1.47
- variant.identifier: "P3G"
  protein stability index: 1.94
- variant.identifier: "S20N"
  protein stability index: 2.08

[ask] Recorded protein stability index for `D2M` , please?
[reply] 1.68

[ask] Recorded protein stability index for `R1V` , please?
[reply] 2.25

[ask] Recorded protein stability index for `S20F` , please?
[reply] 1.59
